Let's look at some variants and their measured normalized RNA/DNA level without ligand (log10).
B1: library; a variant is named by its letters at N, in order (parent)
chain: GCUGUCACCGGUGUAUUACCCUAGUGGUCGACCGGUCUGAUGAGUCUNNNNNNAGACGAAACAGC

variants of: B1; assay: normalized RNA/DNA level without ligand (relative to sTRSVctl = 100) (log10 (% of sTRSVctl)); ligand: hypoxanthine (xanthine aptamer); higher = less ribozyme self-cleavage, higher mRNA level; details: HEK293T, reporter: mCherry (pCS4076), ligand present: no
Give the figure only, with no unit attached.

Use the examples below as a reference point.
# input Using the record for CGAUAA , report its normalized RNA/DNA level without ligand (log10).
# output 1.57

# input Same read-out for UAUCGC ?
# output 1.86

# input Another variant to look at: GAUAGG
# output 1.27

Turning now to a further record.
# input Bench note: what normalized RNA/DNA level without ligand (log10) did AGGCAU show?
# output 1.8
